Measured pIC50, listed per entry.
Tested on: MOLM-13 cells (human acute myeloid leukemia cells)
Test: MOLM-13 Cellular Assay
Format: cell-based
Conditions: Homo sapiens, MOLM-13, 72 h, 72 hours exposure, cell viability by CellTiter-Glo
pIC50: −log10 of the molar value.
readout: pIC50

smiles-text	tgt	recorded-result
C=C(C)c1cn(-c2ccccc2OC)c(=O)c2cc(F)c(-n3nc(CO)n(CC)c3=O)cc12	MOLM-13 cells (human acute myeloid leukemia cells)	≥ 9.70
C=C(C)c1cn(-c2c(F)cccc2Cl)c(=O)c2cc(F)c(-n3nc(CO)n(CC)c3=O)cc12	MOLM-13 cells (human acute myeloid leukemia cells)	≥ 9.70
CCn1c(CO)nn(-c2cc3c(C(C)C)cn(-c4cccnc4C)c(=O)c3cc2F)c1=O	MOLM-13 cells (human acute myeloid leukemia cells)	< 7.00

These entries and their values trace back to patent US11505536B2.
